# SYSTEM NAME: PD-1/PD-L1 protein/protein interaction (recombinant human PD-L1 protein (19-238), recombinant human PD-1 protein (25-167)) (Homo sapiens, UniProt Q9NZQ7)
# Construct: Recombinant human PD-L1 protein (19-238) with a His-tag at the C-terminus; PD1-H5257 (PD-1-Fc)
# Sequence (Q9NZQ7 19-238): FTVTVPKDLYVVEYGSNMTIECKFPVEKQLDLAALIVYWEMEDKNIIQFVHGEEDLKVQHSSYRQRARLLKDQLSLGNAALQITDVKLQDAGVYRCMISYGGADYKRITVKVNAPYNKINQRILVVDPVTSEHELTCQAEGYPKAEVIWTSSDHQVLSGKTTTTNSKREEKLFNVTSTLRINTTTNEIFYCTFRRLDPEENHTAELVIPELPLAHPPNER
# EXPERIMENTAL PROTOCOL: PD-1/PD-L1 Homogeneous Time-Resolved Fluorescence (HTRF) Binding Assay
# EXPERIMENTAL CONDITIONS: 25° C., PBS buffer (pH 7.4), 40 minutes preincubation with inhibitors
METRIC: IC50

Some compounds with known IC50 results, for comparison:
Cc1c(NC(=O)c2nc3c(n2C)CCN(C)C3)cccc1-c1cccc(Nc2nccc3cc(CN4CC[C@@H](C(=O)O)C4)cnc23)c1C : ≤ 10 nM
Cc1c(-c2nc3c(s2)CN(C(=O)CN2CC[C@H](O)C2)C3)cccc1-c1cccc(Nc2nccc3cc(CN4CC[C@@H](C(=O)O)C4)cnc23)c1Cl : ≤ 10 nM

Attention now turns to another entry.
Given the compound `Cc1c(Nc2nccc3cc(CN4CC[C@@H](O)C4)cnc23)cccc1-c1cccc(-c2nc3c(o2)CN(C(=O)CN2CC[C@@H](C(=O)O)C2)C3)c1C` , what is its reported IC50? ≤ 10 nM
